Data provenance is the supplement of paper PMC10567573.

B1: TRIM55 (parent)
chain: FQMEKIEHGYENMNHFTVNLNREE

Variants of: B1
Test: protein stability index of a GFP-peptide fusion (GPS, HEK-293T) (PSI 1-6); higher = more stable;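 further: lentivirally expressed fusions sorted by FACS into six bins by GFP to DsRed ratio, PSI derived from sequencing read proportions per bin multiplied by bin number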
Conditions: c terminus: a fixed tail appended
Measured metric: protein stability index
Number only, no unit.

Task item: What value of protein stability index has been recorded for this entry: FQMEKIEHGYENMNHFNVNLNREE [T17N]
Reply: 3.76

Task item: Try this variant next: FQMEKFEHGYENMNHFTVNLNREE [I6F]
Reply: 2.15

Task item: Try this variant next: FQMEKREHGYENMNHFTVNLNREE [I6R]
Reply: 2.6

Task item: Try this variant next: FQMEKIEHKYENMNHFTVNLNREE [G9K]
Reply: 2.81

Task item: Try this variant next: FQMEKIEHGYENMNHFHVNLNREE [T17H]
Reply: 3.4

Task item: Try this variant next: FQMCKIEHGYENMNHFTVNLNREE [E4C]
Reply: 2.16

Task item: Try this variant next: FQSEKIEHGYENMNHFTVNLNREE [M3S]
Reply: 2.88

Task item: Try this variant next: FQMYKIEHGYENMNHFTVNLNREE [E4Y]
Reply: 2.1

Task item: Try this variant next: FAMEKIEHGYENMNHFTVNLNREE [Q2A]
Reply: 3.14

Task item: Try this variant next: FQMEKIEHGYENMNYFTVNLNREE [H15Y]
Reply: 1.82

Task item: Try this variant next: FQMEKIEHGYENMNHFTVNHNREE [L20H]
Reply: 3.23
